System: HIV-1NL4-3
Assay: Anti-HIV-1 assay in TZM-GFP cells (LTR-activated GFP expression)
Details: Human immunodeficiency virus 1, 48 h, read-out: EC50 (concentration of compound inhibiting HIV-1 replication by 50%)
Recorded EC50 for the following compounds

Some compounds with recorded EC50:
N#Cc1cccc(NNC(=O)Cn2c(S)nnc2-c2ccccc2)c1 [Compound 26]; > 20 µM
Cc1ccccc1-c1nnc(S)n1CC(=O)NNc1ccccc1 [Compound 32]; > 20 µM
N#Cc1ccc(NNC(=O)Cn2c(S)nnc2-c2ccccc2)cc1 [Compound 25]; > 20 µM

(Q) Given the compound O=C(Cn1c(=O)[nH]c2ccccc2c1=O)N[C@@H](Cc1cccc2cc[nH]c12)C(=O)N1CCC[C@H]1C(=O)Nc1ccccc1 [Compound 9] , what is its reported EC50?
(A) > 20 µM

(Q) Same question, Cc1ccc(-c2nnc(S)n2CC(=O)NNc2ccc(F)cc2)cc1 [Compound 28] this time
(A) > 20 µM

(Q) Cool, now Cc1ccc(-c2nnc(S)n2CC(=O)NNc2ccc(-c3ccccc3)cc2)cc1 [Compound 30]
(A) > 20 µM

(Q) Try the compound CCC(C)[C@H](NC(=O)Cn1c(=O)[nH]c2ccccc2c1=O)C(=O)N1CCC[C@H]1C(=O)OC (some centres unmarked) [Compound 7]
(A) > 20 µM

(Q) Please give the result for O=C(Cn1c(S)nnc1-c1ccccc1)NNc1ccccn1 [Compound 22] too.
(A) > 20 µM

====

Tested on: HIV-1NL4-3
Assay: Anti-HIV-1 assay in TZM-GFP cells (LTR-activated GFP expression)
Details: Human immunodeficiency virus 1, 48 h, read-out: EC50 (concentration of compound inhibiting HIV-1 replication by 50%)
pEC50: −log10 of the molar value.
PROPERTY_NAME: pEC50

// worked examples, pEC50 included
O=C(Cn1c(S)nnc1-c1ccccc1)NNc1ccccc1 [Compound 23]; < 4.70
N#Cc1ccc(NNC(=O)Cn2c(S)nnc2-c2cccc3ccccc23)cc1 [Compound 38]; < 4.70
Cc1ccccc1-c1nnc(S)n1CC(=O)NNc1ccc(C#N)cc1 [Compound 34]; < 4.70

Turning to the following molecule.
(Q) Report pEC50 for COC(=O)C1CCCN1C(=O)C(NC(=O)Cn1c(=O)[nH]c2ccccc2c1=O)C(C)C (centres unmarked) [Compound 2] please.
(A) < 4.70

====

Test system: HIV-1NL4-3
Assay: Anti-HIV-1 assay in TZM-GFP cells (LTR-activated GFP expression)
Details: read-out: EC50 (concentration of compound inhibiting HIV-1 replication by 50%)
PROPERTY_NAME: EC50

Sample answers from the record:
CC(C)C[C@H](NC(=O)Cn1c(=O)[nH]c2ccccc2c1=O)C(=O)N(C)c1ccccc1; > 20 µM
CCC(C)[C@H](NC(=O)Cn1c(=O)[nH]c2ccccc2c1=O)C(=O)N(C)c1ccccc1 (stereo partly drawn); > 20 µM

In the following, a different compound is considered.
(Q) Under HIV-1NL4-3: EC50 value of CCC(C)[C@H](NC(=O)Cn1c(=O)[nH]c2ccccc2c1=O)C(=O)N(C)c1ccc(Cl)cc1 (stereo partly drawn) ?
(A) > 20 µM

====

Experiment: Microsomal stability assay, human liver microsomes
Type: in vitro ADME
Conditions: pH 7.4; human liver microsomes, 1 µM compound, NADPH; read-out: Phase I metabolic stability t1/2, HLM
PROPERTY_NAME: half-life at 1 µM

(Q) Entry `O=C(Cn1c(=O)[nH]c2ccccc2c1=O)N[C@@H](Cc1ccccc1)C(=O)N1CCC[C@H]1C(=O)Nc1ccccc1` : reported half-life at 1 µM = ?
(A) 31 min
